# targetEntity: human IDO1 (Homo sapiens, UniProt P14902)
# Sequence (P14902 whole entry): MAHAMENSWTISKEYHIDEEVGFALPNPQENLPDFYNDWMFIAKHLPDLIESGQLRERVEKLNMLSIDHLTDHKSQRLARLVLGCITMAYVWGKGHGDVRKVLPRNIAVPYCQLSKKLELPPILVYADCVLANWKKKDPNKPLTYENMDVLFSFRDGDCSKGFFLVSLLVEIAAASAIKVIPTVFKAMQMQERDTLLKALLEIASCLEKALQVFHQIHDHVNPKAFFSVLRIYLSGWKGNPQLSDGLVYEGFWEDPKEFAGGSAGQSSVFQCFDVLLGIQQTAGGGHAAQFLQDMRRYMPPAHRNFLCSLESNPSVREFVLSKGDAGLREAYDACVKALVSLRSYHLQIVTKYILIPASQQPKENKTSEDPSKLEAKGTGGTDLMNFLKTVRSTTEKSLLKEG
# measurementDescription: IDO inhibition assay in human IDO1/HEK293 cells (IDO1 HEK Human)
# conditionSet: HEK293 cells stably expressing human IDO1; 20 hours incubation; absorbance at 490 nm after Ehrlich reagent

{"columns": ["compound", "IC50 (µM)"],
 "data": [
  ["Cc1ccc(NC(=O)Nc2cc(-c3ccccc3C(=O)O)cc3c2OC(C)(C)C3c2ccccc2)cc1 (racemic)", 0.077],
  ["C=C[C@@H]1Oc2c(NC(=O)Nc3ccc(C)cc3)cc(-c3ccccc3-c3nnn[nH]3)cc2[C@H]1CCC(F)(F)F (single isomer, unassigned)", 0.0071],
  ["C=C[C@@H]1Oc2c(NC(=O)Nc3ccc(C)cc3)cc(-c3ccccc3-c3nnn[nH]3)cc2[C@H]1c1ccccc1 (single isomer, unassigned)", 0.013],
  ["Cc1ccc(NC(=O)Nc2cc(-c3ccccc3-c3nnn[nH]3)cc3c2O[C@@H](C)[C@@H]3CCC(F)(F)F)cc1 (relative stereo)", 0.023]
]}

###

# targetEntity: human IDO1 (Homo sapiens)
# measurementDescription: IDO inhibition assay in human IDO1/HEK293 cells (IDO1 HEK Human)
# conditionSet: HEK293 cells stably expressing human IDO1; 20 hours incubation; absorbance at 490 nm after Ehrlich reagent
pIC50: −log10 of the molar value.
Assign class by pIC50: not lower than 7 means Fulfilled; lower than 7 means Not fulfilled.

{"columns": ["compound", "cat"],
 "data": [
  ["c1ccc(C2CCCOc3c(Nc4ccnc5ccnn45)cc(-c4ccccc4-c4nnn[nH]4)cc32)cc1 (single isomer, unassigned)", "Not fulfilled"],
  ["Cc1ccc(CC(=O)Nc2cc(-c3ccccc3-c3nnn[nH]3)cc3c2OCCCC3C(C)C)cc1 (racemic) [25 (Rac)]", "Fulfilled"],
  ["O=C(Nc1ccccc1F)Nc1cc(-c2ccccc2-c2nnn[nH]2)cc2c1OCCCC2C1CC1 (single isomer, unassigned) [38 (En. 2)]", "Fulfilled"],
  ["Cc1ccc(-c2nnn[nH]2)c(-c2cc(Nc3ccc4nc(C)sc4c3)c3c(c2)C(c2ccccc2)CCCO3)c1 (single isomer, unassigned)", "Fulfilled"],
  ["Cc1ccc(NC(=O)Nc2cc(-c3cc(F)ccc3C(=O)O)cc3c2O[C@@H](C)[C@@H]3CCC(F)(F)F)cc1 (relative stereo)", "Not fulfilled"],
  ["Cc1ccc(NC(=O)Nc2cc(-c3ccccc3-c3nnn[nH]3)cc3c2OCCCC3c2ccccc2)nc1 (centres unmarked) [Example 17]", "Fulfilled"],
  ["C=C(C)C1Oc2c(NC(=O)Nc3ccc(C)cc3)cc(-c3ccc(OC)c(C(=O)O)c3)cc2C1c1ccccc1 (racemic)", "Not fulfilled"]
]}

###

# targetEntity: human IDO1 (Homo sapiens, UniProt P14902)
# measurementDescription: IDO inhibition assay in human IDO1/HEK293 cells (IDO1 HEK Human)
# conditionSet: HEK293 cells stably expressing human IDO1; 20 hours incubation; absorbance at 490 nm after Ehrlich reagent

{"columns": ["molecule", "measurementUnit", "IC50"],
 "data": [
  ["C=C[C@H]1Oc2c(NC(=O)Cc3ccc(C)cc3)cc(-c3ccccc3-c3nnn[nH]3)cc2[C@@H]1c1ccccc1 (racemic) [Example 91]", "nM", 89],
  ["Cc1ccc(CC(=O)Nc2cc(-c3ccccc3-c3nnn[nH]3)cc3c2OCCCC3c2ccccc2)cc1 (racemic) [Example 2-1]", "nM", 98.2],
  ["Cc1ccc(-c2nnn[nH]2)c(-c2cc(NC(=O)Nc3ccccc3F)c3c(c2)C(C2CC2)CCCO3)c1 (single isomer, unassigned) [Example 34-1]", "nM", 66]
]}

Cited source for all entries: patent US12145927B2
